biological target: OTR (Homo sapiens, UniProt P30559); test: Ca2+ mobilization in cells stably expressing OTR (FLIPR, antagonist mode); conditions: OTR/HEK293 stably transfected cell line
Sequence (P30559 whole entry, species assumed): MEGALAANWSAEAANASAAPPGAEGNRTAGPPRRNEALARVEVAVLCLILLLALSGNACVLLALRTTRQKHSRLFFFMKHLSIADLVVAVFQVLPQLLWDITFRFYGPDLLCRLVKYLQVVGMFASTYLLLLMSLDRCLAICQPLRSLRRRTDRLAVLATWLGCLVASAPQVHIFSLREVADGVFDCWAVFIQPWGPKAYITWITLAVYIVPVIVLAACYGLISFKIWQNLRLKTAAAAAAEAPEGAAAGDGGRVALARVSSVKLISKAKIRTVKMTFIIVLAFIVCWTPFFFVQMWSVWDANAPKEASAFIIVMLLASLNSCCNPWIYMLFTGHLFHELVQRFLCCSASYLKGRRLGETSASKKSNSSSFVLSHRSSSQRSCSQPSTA
parameter: IC50 (nM)

Use these answered entries as a reference point.
> print(dat)
                                   compound  unit.abbrev   val
1  CO/N=C1\C[C@@H]([C@@H](C)O)N(C(=O)c2ccc(-c3cccc(C#N)c3C)cc2)C1 (single isomer, unassigned) [Example C0113]           nM  55.3
2  CO/N=C1/C[C@@H](CO)N(C(=O)c2cnc(-c3cccc(C#N)c3C)cn2)C1 [Example A0251]           nM   363
3  CO/N=C1\CN(C(=O)c2ccc(-c3ccccc3C)cc2)[C@@]2(CCNC2=O)C1 [Example C0039]           nM   295
4  CO/N=C1/C[C@@H](CO)N(C(=O)c2ccc(-c3ccccc3C)cc2C)C1 [Example C0044]           nM  78.5
5  CO/N=C1\C[C@@H](CNC(C)=O)N(C(=O)c2ccc(-c3ccccc3C)cc2)C1 [Example C0003]           nM  2330
6  CO/N=C1\CN(C(=O)c2ccc(-c3ccccc3C)cc2)C(CO)(CO)C1 [Example A0083]           nM   539
7  CO/N=C1/C[C@@H](CO)N(C(=O)c2ccc(-c3cccc(C)c3C)c(OC)c2)C1 [Example C0064]           nM    11
8  CO/N=C1/C[C@@H](CO)N(C(=O)c2ccc(-c3cc(F)cc(C#N)c3C)c3c2OCCO3)C1 [Example C0152]           nM  6.63

A. CO/N=C1/C[C@@H](CO)N(C(=O)c2ncc(-c3cccc(C)c3C)s2)C1 [Example C0097]
B. CO/N=C1/C[C@@H](CO)N(C(=O)c2cnc(-c3cccc(Cl)c3C)cn2)C1 [Example C0041]
Ask: Please state the entry with greater IC50 among A and B . Select an item and report its label.
Result: A
(A: 815 nM, B: 49.3 nM)

I. CON=C1C[C@@H](CO)N(C(=O)c2ncc(-c3cccc(C)c3C)nn2)C1 (single isomer, unassigned) [Example C0109]
II. CO/N=C1/C[C@@H](CO)N(C(=O)c2ccc(-c3cccc(C#N)c3C)c3ncnn23)C1 [Example A0190]
III. CO/N=C1/C[C@@H](CO)N(C(=O)c2ccc(-c3cccc(C)c3C)c(C)c2)C1 [Example C0047]
IV. CO/N=C1/C[C@@H](CO)N(C(=O)c2ccc(-c3ccccc3C)c(C)c2)C1 [Example C0046]
Ask: Rank ascending by IC50. API: response body holds the labels in the requested order.
Result: III, IV, I, II
(III: 11.2 nM, IV: 22.1 nM, I: 367 nM, II: 1510 nM)

###

Target: V1aR (Homo sapiens)
Sequence (P37288 whole entry, species assumed): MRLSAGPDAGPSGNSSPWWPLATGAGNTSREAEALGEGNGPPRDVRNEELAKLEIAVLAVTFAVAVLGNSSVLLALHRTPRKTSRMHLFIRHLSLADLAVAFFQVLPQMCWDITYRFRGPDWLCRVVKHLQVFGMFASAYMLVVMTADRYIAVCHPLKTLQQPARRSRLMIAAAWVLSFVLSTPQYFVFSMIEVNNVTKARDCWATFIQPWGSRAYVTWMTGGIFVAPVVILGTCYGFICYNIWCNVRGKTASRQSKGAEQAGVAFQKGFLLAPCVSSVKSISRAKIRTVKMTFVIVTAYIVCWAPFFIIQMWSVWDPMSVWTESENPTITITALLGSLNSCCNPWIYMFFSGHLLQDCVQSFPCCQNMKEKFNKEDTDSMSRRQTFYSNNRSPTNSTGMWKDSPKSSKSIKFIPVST
Assay: Ca2+ mobilization in cells stably expressing V1aR (FLIPR, antagonist mode)
Settings: V1a-CHO stably transfected cell line
Experimental: Test Example 2. Determination of the Effect of the Compound of the Present Disclosure on Ca^2+ Mobilization in Cells Stably Expressing V1aR To measure the antagonistic effect of the compound of the present disclosure on V1aR activity expressed in the V1a-CHO stably transfected cell line. […] • 1. Cell plating: V1a-CHO cells were digested and harvested, resuspended and counted, and then inoculated into a 384-well cell plate at a density of: 1.2×10^4 cells/25 μL/well. […]
parameter: IC50 (nM)

> print(dat)
                                   compound  parameter   val
1  CO/N=C1/C[C@@H](CO)N(C(=O)c2ccc(-c3ccc(F)c(C#N)c3C)c3c2OCO3)C1 [Example C0123]       IC50  9060

1. CO/N=C1/C[C@@H](CO)N(C(=O)c2ccc(-c3cccc(C#N)c3C)c3c2OCCCO3)C1 [Example A0235]
2. CO/N=C1/C[C@@H](CO)N(C(=O)c2cc(F)c(-c3cccc(C#N)c3C)c3c2OCO3)C1 [Example C0162]
3. CO/N=C1/C[C@@H](CO)N(C(=O)c2ccc(-c3cccc(OC)c3C)cc2)C1 [Example C0066]
4. CO/N=C1/C[C@@H](CO)N(C(=O)c2ccc(-c3ccccc3C)cc2)C1 [Nolasiban, reference compound]
Ask: Rank ascending by IC50. API: response body holds the labels in the requested order.
Result: 4, 2, 1, 3
(4: 389 nM, 2: 747 nM, 1: 1360 nM, 3: 2160 nM)
